Source: PubChem BioAssay (NCI)

System: SF-539 CNS
ASSAY_METHOD_TEXT: NCI-60 one-dose screen, 48 h (100 = growth as untreated, 0 = no growth, -100 = all killed)
EXPERIMENTAL_SETUP: 10 µM unless noted
Compounds without any hit were thinned out: in the full panel of roughly 83,000, 20% have a hit.
Recorded growth, one value per entry.
Use % as the unit, but write only the number.

The following compounds have reported results that may help.
O=C(CSc1nnc2sc(Nc3cccc(Cl)c3)nn12)c1ccc(F)cc1 ... 102
O=C(Nc1ncc(Cc2ccccc2Cl)s1)c1cccs1 ... 95.8
CC(C)(C)C(=O)/C=C/c1ccc([N+](=O)[O-])cc1 ... 86.9
CCOc1ccc(/C=N\N=C\c2ccc(OCC)cc2)cc1 ... 96.4
CCn1cc(C2=C(c3cn(C)c4ncccc34)C(=O)NC2=O)c2cccnc21 ... 72
Cc1cccc(NC(=O)CSc2nc3ccc([N+](=O)[O-])cc3[nH]2)c1 ... 87.1

Entry under test: "Cc1ccc2[nH]c(-c3ccc(S(C)(=O)=O)cc3)c(/C=N/N=C(N)N)c2c1" . Its growth was 59.5

Entry under test: "Nc1nc(C(=O)N/N=C/c2ccc(N3CCOCC3)cc2)nn1-c1ccc(S(N)(=O)=O)cc1" . Its growth was 105

Entry under test: "COc1cc(/C=C\c2cc(/C=C\c3ccc(O)c(OC)c3)n(C(=O)CNc3ccc(Cl)cc3)n2)ccc1O" . Its growth was 8.34

Entry under test: "O=S(=O)(c1ccccc1)N1CCCN(c2nc(-c3ccccc3)nc3nc(-c4ccccc4)oc23)CC1" . Its growth was 104

Entry under test: CC(/C=C1\SC(=S)N(CC(=O)NC(Cc2c[nH]c3ccccc23)C(=O)O)C1=O)=C\c1ccccc1 (stereo unspecified) . Its growth was 104

Entry under test: "CCCCCCCCNc1cc2c3c(c1)CCCN3CCC2" . Its growth was 8.74

Entry under test: "O=C1NC(=C(Cl)Cl)/C(=N/S(=O)(=O)N2CCCCC2)N1" . Its growth was 11.8

Entry under test: "CNCc1cccc2c1OCCOCCN(C)C(=O)CN(C)S(=O)(=O)c1ccc(cc1)-c1cnc(N)c(n1)C(=O)N2" . Its growth was -50.7

Entry under test: "N#Cc1c(-c2ccccc2)cc(-c2ccccc2)n(CCCC(=O)NO)c1=O" . Its growth was 20.6

Entry under test: "COc1cccc2c(N=NC(=O)c3ccc(S(N)(=O)=O)cc3)c(O)[nH]c12" . Its growth was 102

---

Test system: HCC-2998 colon
ASSAY_METHOD_TEXT: NCI-60 one-dose screen, 48 h (100 = growth as untreated, 0 = no growth, -100 = all killed)
EXPERIMENTAL_SETUP: 10 µM unless noted
Compounds without any hit were thinned out: in the full panel of roughly 83,000, 20% have a hit.
QUANTITY_MEASURED: growth (%)
Use % as the unit, but write only the number.

The following compounds have reported results that may help.
CS(=O)(=O)Cc1cnc(C2OCCO2)s1 ... 107
COc1cc2cc(Oc3ccc(NC(=O)Nc4ccccc4)cc3)c(C)nc2cc1OCCN1CCCCC1 ... 73
Cc1ccc(C)c2c1C(O)(C#Cc1ccccc1)c1ccccc1C2(O)C#Cc1ccccc1 (configuration not stated) ... 87.4

Record "CCSC1=CC(=O)c2ccccc2C1=O" / HCC-2998 colon, growth recorded as 117

Record "CCOC(=O)c1c(NC(=O)CSc2n[nH]c3nc4ccccc4n23)sc(CC)c1C" / HCC-2998 colon, growth recorded as 105

Record "CCCNc1nc2ccccc2c2c(=O)c3cccc(Cl)c3sc12" / HCC-2998 colon, growth recorded as 103
